These entries and their values trace back to patent US8242105B2.

- TARGET_ENTITY: Mena/EVH1 domain (Homo sapiens)
- Sequence (Q8N8S7 1-111 limits assumed): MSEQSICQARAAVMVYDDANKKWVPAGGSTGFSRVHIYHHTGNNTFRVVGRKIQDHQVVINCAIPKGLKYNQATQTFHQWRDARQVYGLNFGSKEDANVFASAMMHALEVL
- PROTOCOL_DESCRIPTION: biochemical
No end group written: not given here.
MEASUREMENT_NAME: pKd
Reminder that pKd means the negative base-10 logarithm of the concentration expressed in mol/L.

Q. Item under review: FPPPPT [FPPPPT] . Reported pKd?
A. 3.38

====

- TARGET_ENTITY: VASP/EVH1 domain (Homo sapiens, UniProt P50552)
- Construct: the EVH1 domain of a completely ^15N-labelled VASP protein
- Sequence (P50552 2-113): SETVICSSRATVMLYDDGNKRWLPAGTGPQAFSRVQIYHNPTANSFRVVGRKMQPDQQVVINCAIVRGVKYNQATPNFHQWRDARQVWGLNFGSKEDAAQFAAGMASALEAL
- PROTOCOL_DESCRIPTION: Fluorescence titration of ligand peptides
- Format: binding
MEASUREMENT_NAME: pKd
Please note pKd is a logarithmic value: minus log10 of concentration in mol/L. Answer with that number alone.

Q. Endpoint output: pKd of `CC(C)C[C@H](NC(=O)[C@H](CCC(=O)O)NC(=O)[C@H](CC(=O)O)NC(=O)[C@H](CCC(=O)O)NC(=O)[C@@H](NC(=O)[C@@H]1CCCN1C(=O)[C@@H]1CC[C@@H]2C=C[C@H]3CCN(C(=O)[C@@H]4CCCN4C(=O)[C@H](Cc4ccccc4)NC(=O)[C@H](CCC(=O)O)NC(=O)[C@H](Cc4ccccc4)NC(=O)[C@@H](N)CO)[C@@H]3C(=O)N21)[C@@H](C)O)C(=O)O` . Value?
A. 4.33
